Tested on: CCRF-CEM
assay method text: NCI tumour cell line growth inhibition, 48 h
Activity calls are given as the source filed them. Cut-off read from the data, not from the text of the source: active = GI50 up to about 1.1 µM and inactive = higher. Where a SMILES comes first, the peptide text is derived from it. [ ]: non-standard residue; d: D form. The star is where a group is joined. ξ: configuration not given here. Propanoyl(3-(4-MeO-Ph)) = COc1ccc(CCC(=O)*)cc1; Thr(3ξ) = CC(O)[C@H](N)C(=O)O; dNMeL = CN[C@H](CC(C)C)C(=O)O; OBn = c1ccc(CO*)cc1; ξLac = CC(O)C(=O)O
Known GI50 of a selection of molecules

Recorded GI50, per entry:
1) Cc1nc2nnnn2c2c1C(=O)Nc1ccccc1N2 : > 100 µM (inactive)
2) CC(N)Cc1ccc(Cl)cc1 (stereo not given) : 61.2 µM (inactive)
3) Cc1cc(NS(=O)(=O)c2ccc(NC(=O)c3ccc4nc5ccccc5c(Nc5ccc(S(=O)(=O)Nc6cc(C)on6)cc5)c4c3)cc2)no1 : > 50 µM (inactive)
4) CCOC(=O)C(=O)Nc1ccc(Cl)cc1C : > 100 µM (inactive)

Using the record for COc1ccc(CCC(=O)OC(C)[C@H](NC(=O)[C@@H](CC(C)C)N(C)C(=O)[C@@H]2CCCN2C(=O)C(C)O)C(=O)OCc2ccccc2)cc1 (stereo not given in full) (H-[ξLac]P[dNMeL][Thr(3ξ)](Propanoyl(3-(4-MeO-Ph)))-OBn) , report its GI50.
26.9 µM (inactive)

Let us now turn to CC(C)c1ccc2c(c1)[C@@]1(C)CC[C@H](C)C(C)(C)C1CC2 (stereo not given in full)
23.7 µM (inactive)

Let us now turn to Cc1sc2nc3n(sc4nc5sc(C)c(C)c5c(=O)n43)c(=O)c2c1C
16.4 µM (inactive)

Let us now turn to Nc1ccc(Nc2c3ccccc3nc3ccccc23)cc1
2.09 µM (inactive)

Let us now turn to COc1ccc(N2C(=O)CC(c3c[nH]c4ccccc34)C2=O)cc1 (stereo not given)
> 100 µM (inactive)

Let us now turn to O=C(/C=C/c1ccccc1)Oc1cccc2cccnc12
3.18 µM (inactive)
